target_desc: Cannabinoid receptor 2 (Homo sapiens, UniProt P34972)
Sequence (P34972 whole entry): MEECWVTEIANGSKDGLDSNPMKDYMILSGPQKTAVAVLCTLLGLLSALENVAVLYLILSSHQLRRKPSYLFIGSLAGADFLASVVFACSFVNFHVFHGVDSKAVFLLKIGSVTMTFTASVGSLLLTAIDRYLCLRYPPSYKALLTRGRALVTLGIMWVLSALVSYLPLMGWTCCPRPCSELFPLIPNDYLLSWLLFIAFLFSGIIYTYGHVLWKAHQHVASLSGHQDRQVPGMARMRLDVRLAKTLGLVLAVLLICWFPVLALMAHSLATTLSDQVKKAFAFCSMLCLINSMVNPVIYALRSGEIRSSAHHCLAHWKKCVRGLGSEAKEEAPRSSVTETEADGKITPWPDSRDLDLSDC
pKi: −log10 of the molar value.
In this section we review reported pKi values for a set of compounds.

- cpd_smiles: "CCN(CC)C(=O)c1ccc2c(c1)nc(Cc1ccc(OC(F)(F)F)cc1)n2CCC(C)C"
  target_desc: "Cannabinoid receptor 2 (Homo sapiens, UniProt P34972)"
  relation_operator: "="
  pKi: 7.60
- cpd_smiles: "CCOc1ccc(Cc2nc3cc(C(=O)N(C)C4CCCCC4)ccc3n2CC2CC2)cc1"
  target_desc: "Cannabinoid receptor 2 (Homo sapiens, UniProt P34972)"
  relation_operator: "="
  pKi: 7.96
- cpd_smiles: "CCOc1ccc(Cc2nc3cc(C(=O)N(CC)CC)ccc3n2CC2CCC2)cc1"
  target_desc: "Cannabinoid receptor 2 (Homo sapiens, UniProt P34972)"
  relation_operator: "="
  pKi: 8.80
- cpd_smiles: "CCOc1ccc(Cc2nc3cc(C(N)=O)ccc3n2CC2CC2)cc1"
  target_desc: "Cannabinoid receptor 2 (Homo sapiens, UniProt P34972)"
  relation_operator: "<"
  pKi: 5.30
- cpd_smiles: "CCN(CC)C(=O)c1ccc2c(c1)nc(Cc1ccc(OC)cc1)n2CCC(C)C"
  target_desc: "Cannabinoid receptor 2 (Homo sapiens, UniProt P34972)"
  relation_operator: "="
  pKi: 7.77

====

pKi: −log10 of the molar value.
pKi, Cannabinoid receptor 2 (Homo sapiens): measured values
quantity_name: pKi

- cpd_smiles: "CCOc1ccc(Cc2nc3cc(N(C)C(=O)N(CC)CC)ccc3n2CC2CC2)cc1"
  relation_operator: "="
  data_value: 8.23
- cpd_smiles: "CCOc1ccc(Cc2nc3cc(C(=O)N(CC)CC)ccc3n2C[C@H]2CCCO2)cc1"
  relation_operator: "="
  data_value: 7.64
- cpd_smiles: "CCN(CC)C(=O)c1ccc2c(c1)nc(Cc1ccc(O)cc1)n2CCC(C)C"
  relation_operator: "="
  data_value: 6.10
- cpd_smiles: "CCOc1ccc(Cc2nc3cc(C(=O)N(CC)CC)ccc3n2CC2CCNCC2)cc1"
  relation_operator: "="
  data_value: 5.53
- cpd_smiles: "CCN(CC)C(=O)c1ccc2c(c1)nc(Cc1ccc(OCC(F)(F)F)cc1)n2CCC(C)C"
  relation_operator: "="
  data_value: 7.24
- cpd_smiles: "CCOc1ccc(Cc2nc3cc(C(=O)N(CC)CC)ccc3n2Cc2cc[n+]([O-])cc2)cc1"
  relation_operator: "="
  data_value: 6.23
- cpd_smiles: "CCNC(=O)c1ccc2c(c1)nc(Cc1ccc(OCC)cc1)n2CC1CC1"
  relation_operator: "="
  data_value: 7.20
- cpd_smiles: "CCOc1ccc(Cc2nc3cc(C(=O)N(CC)CC)ccc3n2CC2CCCCC2)cc1"
  relation_operator: "="
  data_value: 8.43
- cpd_smiles: "CCOc1ccc(Cc2nc3cc(NC(C)=O)ccc3n2CC2CC2)cc1"
  relation_operator: "<"
  data_value: 5.30
- cpd_smiles: "CCCN(CCC)C(=O)c1ccc2c(c1)nc(Cc1ccc(OCC)cc1)n2CC1CC1"
  relation_operator: "="
  data_value: 8.55
- cpd_smiles: "CCN(CC)C(=O)c1ccc2c(c1)nc(Cc1ccc(Oc3ccccc3)cc1)n2CCC(C)C"
  relation_operator: "="
  data_value: 8.31
- cpd_smiles: "CCN(CC)C(=O)c1ccc2c(c1)nc(Cc1ccc(OC3CCCCC3)cc1)n2CCC(C)C"
  relation_operator: "="
  data_value: 6.28
